We begin with a simple list: items and their reported solubility (mole fraction).
details: in 2-pentanone, 313.15 K

Smiles repr	Property name	Measured result
C[C@H](CCC(=O)O)[C@H]1CC[C@H]2[C@@H]3CC[C@@H]4C[C@H](O)CC[C@]4(C)[C@H]3C[C@H](O)[C@]12C	solubility (mole fraction)	0.00286

Could you now consider this next compound?
Task: Give its solubility (mole fraction) value. Item: C[C@H](CCC(=O)O)[C@H]1CC[C@H]2[C@@H]3[C@H](O)C[C@@H]4C[C@H](O)CC[C@]4(C)[C@H]3C[C@H](O)[C@]12C
Output: 0.00247

----------
settings: in n-octanol, 323.15 K
Property name: solubility (mole fraction)

Task: I'd like to know its solubility (mole fraction). The molecule in question is C[C@H](CCC(=O)O)[C@H]1CC[C@H]2[C@@H]3[C@H](O)C[C@@H]4C[C@H](O)CC[C@]4(C)[C@H]3C[C@H](O)[C@]12C
Output: 0.0222

Task: Could you do the same for C[C@H](CCC(=O)O)[C@H]1CC[C@H]2[C@@H]3CC[C@@H]4C[C@H](O)CC[C@]4(C)[C@H]3C[C@H](O)[C@]12C , please?
Output: 0.0192

Taken from BigSolDB 2.1.
